Data origin: patent US20220370416A1

# Tested on: HiBit-KRAS^G12C (Homo sapiens, UniProt P01116, G12C)
# Sequence (P01116 1-186 isoform P01116-2 G12C limits assumed): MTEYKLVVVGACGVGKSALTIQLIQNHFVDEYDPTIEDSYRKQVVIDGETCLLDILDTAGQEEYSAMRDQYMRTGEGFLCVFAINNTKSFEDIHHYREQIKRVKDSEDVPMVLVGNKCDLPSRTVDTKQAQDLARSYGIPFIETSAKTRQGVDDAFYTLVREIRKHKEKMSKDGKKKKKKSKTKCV
# Experiment description: HiBit degradation assay in MiaPaCa-2 HiBit-KRas^G12C cells
# Type: cell-based
# Condition parameters: read-out: KRas^G12C-HiBiT (MiaPaCa; 0.5% DMSO) IC50; MiaPaCa-2 HiBit-KRas^G12C cells; 0.5% DMSO; 24 hours
# key: entry, value: DC50

>>> value_observed("C=CC(=O)N1CCN(c2nc(OCCN3CCC(COCC(=O)N[C@H](C(=O)N4C[C@H](O)C[C@H]4C(=O)N[C@@H](C)c4ccc(-c5scnc5C)cc4)C(C)(C)C)CC3)nc3c(F)c(-c4cccc5cccc(C)c45)c(Cl)cc23)C[C@@H]1CC#N")
"100 to 1000 nM"

We now examine a further molecule.
Input: Missing value: DC50, HiBit-KRAS^G12C (Homo sapiens, UniProt P01116, G12C), entry `C=CC(=O)N1CCN(c2nc(OCCN3CCC(F)(CN(C)CC(=O)N[C@H](C(=O)N4C[C@H](O)C[C@H]4C(=O)N[C@@H](C)c4ccc(-c5scnc5C)cc4)C(C)(C)C)CC3)nc3c(F)c(-c4cc(O)cc5ccccc45)c(Cl)cc23)C[C@@H]1CC#N` . Fill in?
Output: 100 to 1000 nM

* * *

# Tested on: HiBit-KRAS^G12C (Homo sapiens, UniProt P01116, G12C)
# Experiment description: HiBit degradation assay in MiaPaCa-2 HiBit-KRas^G12C cells
# Assay type: cell-based
# Condition parameters: MIA PaCa-2, MiaPaCa-2 HiBit-KRas^G12C cells; 0.5% DMSO; 24 hours; maximum degradation; read-out: KRas^G12C-HiBiT (MiaPaCa; 0.5% DMSO) DMax
In this section, each of the compounds is paired with its reported Dmax.

>>> value_observed("C=CC(=O)N1CCN(c2nc(OCCN3CCC(COCC(=O)N[C@H](C(=O)N4C[C@H](O)C[C@H]4C(=O)N[C@@H](C)c4ccc(-c5scnc5C)cc4)C(C)(C)C)CC3)nc3c(F)c(-c4cc(O)cc(C)c4C)c(Cl)cc23)C[C@@H]1CC#N [Compound 102]")
"> 70%"

Input: Requested field: Dmax. Item: C=CC(=O)N1CCN(c2nc(OCCN3CCC(COc4cc([C@H](C(=O)N5C[C@H](O)C[C@H]5C(=O)N[C@@H](C)c5ccc(C#N)cc5)C(C)C)on4)CC3)nc3c(F)c(-c4cc(O)cc5ccccc45)c(Cl)cc23)C[C@@H]1CC#N [Compound 160]
Output: < 35%

Input: Consider the compound C=CC(=O)N1CCN(c2nc(O[C@H](C)CN3CCC(CCOCC(=O)N[C@H](C(=O)N4C[C@H](O)C[C@H]4C(=O)N[C@@H](C)c4ccc(-c5scnc5C)cc4)C(C)(C)C)CC3)nc3c(F)c(-c4cc(O)cc5ccccc45)c(Cl)cc23)CC1 [Compound 68] and give its measured Dmax.
Output: 35 to 70%

Input: Could you tell me which Dmax is on file for C=CC(=O)N1CCN(c2nc(N3CCN(C[C@H]4C[C@H](OCC(=O)N[C@H](C(=O)N5C[C@H](O)C[C@H]5C(=O)N[C@@H](C)c5ccc(-c6scnc6C)cc5)C(C)(C)C)C4)CC3)nc3c(F)c(-c4cc(O)cc5ccccc45)c(Cl)cc23)C[C@@H]1CC#N [Compound 114] ?
Output: < 35%
